B1: EEHEE_rd4_0469 (parent)
chain: ITIHVNGVTYHFDNPEEAEKFAQKMAKTYQLKMEIHNGEFHME

# Variants of: B1
# protocol_details: folding stability dG (cDNA display proteolysis); higher = more stable
# condition_parameters: PBS, room temperature
# thresholds on folding stability dG define classes: one (below 0.7 kcal/mol), two (0.7 kcal/mol to below 1 kcal/mol), three (1 kcal/mol or more)

Y29K = two
A18R = one
T28A = three
A18S = one
Q30S = two

[Q] Could you place P15K in its proper category? Many thanks.
[A] three

[Q] Cool, now A26W
[A] three

[Q] What about N37I ?
[A] three

This collection of values is drawn from the MegaScale stability set (Tsuboyama et al. 2023).
